Test system: SW-620 colon
METHOD DESCRIPTION: NCI-60 one-dose screen, 48 h
TEST CONTEXT: 10 µM unless noted
The panel holds about 83,000 compounds, 20% with a hit somewhere; the sample as a whole holds those more often. Activity calls are given as the source filed them. How the source made its calls: active means growth percent below 10; inactive means the rest.
Labels: class 1 (active), class 0 (inactive)

>>> answer_label("CCOP1(=O)CC(C)=C(Cl)C(P(=O)(OCC)OCC)C1 (centres undefined)")
"class 0"
>>> answer_label("C[C@@]12CC=C3c4nc(Nc5cccc(O)c5)sc4CC[C@]3(C)[C@H]1CC[C@]1(C)C(=O)CC[C@@H]21")
"class 1"
>>> answer_label("O=C1C=C(N2C3C4CCC(C4)C32)C(=O)C=C1c1ccccc1 (centres undefined)")
"class 0"
>>> answer_label("CC[C@H](C)[C@H](NC(=O)[C@H]1CCCCN1C)C(=O)N(C)[C@H](C[C@@H](OC(C)=O)c1nc(C(=O)N[C@@H](Cc2ccccc2)C[C@H](C)C(=O)OC)cs1)C(C)C")
"class 0"
>>> answer_label("Cc1ccc(S(=O)(=O)C(Cl)(Cl)Cl)cc1")
"class 0"
>>> answer_label("CCCCCSC1C2C(=O)C(Br)=CC13CCNc1c(O)c4c5c(c13)=[N+]2CCC=5C=N4 (centres undefined)")
"class 1"
>>> answer_label("Cc1ccc(N2COOC3(OOC2)C2CC4CC(C2)CC3C4)cc1")
"class 0"
>>> answer_label("CC1=C2[C@@H](CC1)[C@]1(C)O[C@@](C(C)C)(C[C@H]1O)[C@H]2OC(=O)C1CC1c1ccccc1 (some centres undefined)")
"class 0"
>>> answer_label("CN1CCCCC1C(C)(O)c1ccccc1 (centres undefined)")
"class 0"
